readout-name: melting point

- CCn1c(Oc2ccc3cc[nH]c3c2)nnc1[C@@H](C)NS(=O)(=O)c1cccc(C(F)(F)F)c1: 188.5 to 192 °C
- CCCn1c(Oc2ccc(C)cc2)nnc1[C@@H](C)NS(=O)(=O)c1ccc(Cl)c(Cl)c1: 169.5 to 170.5 °C
- CCn1c(Oc2cccc(N3CCN(C(C)C)CC3)c2)nnc1[C@@H](C)NS(=O)(=O)c1ccc(Cl)c(Cl)c1: 190 to 192 °C
- CCn1c(Oc2cccc(N3CCN(C)CC3)c2)nnc1[C@@H](C)NS(=O)(=O)c1ccc2c(I)cccc2c1 [Compound 690]: 198 to 200 °C
- CCn1c(Oc2cccc(N3CCN(C)CC3)c2)nnc1[C@@H](C)NS(=O)(=O)c1ccc(C)c(Cl)c1: 164 to 169.5 °C
- CCn1c(Oc2ccc(N3CCCC3)cc2)nnc1[C@@H](C)NS(=O)(=O)c1ccc(Cl)c(Cl)c1: 198 to 199 °C
- CCn1c(Oc2cccc(N(C)C)c2)nnc1[C@@H](C)NS(=O)(=O)c1ccc(Cl)c(Cl)c1: 165 to 170 °C

###

- target-or-system: human Edg-1 (S1P1) (Homo sapiens, UniProt P21453)
- Construct: expressed in transfected cells; host or cells: HEK-293
- Sequence (P21453 whole entry): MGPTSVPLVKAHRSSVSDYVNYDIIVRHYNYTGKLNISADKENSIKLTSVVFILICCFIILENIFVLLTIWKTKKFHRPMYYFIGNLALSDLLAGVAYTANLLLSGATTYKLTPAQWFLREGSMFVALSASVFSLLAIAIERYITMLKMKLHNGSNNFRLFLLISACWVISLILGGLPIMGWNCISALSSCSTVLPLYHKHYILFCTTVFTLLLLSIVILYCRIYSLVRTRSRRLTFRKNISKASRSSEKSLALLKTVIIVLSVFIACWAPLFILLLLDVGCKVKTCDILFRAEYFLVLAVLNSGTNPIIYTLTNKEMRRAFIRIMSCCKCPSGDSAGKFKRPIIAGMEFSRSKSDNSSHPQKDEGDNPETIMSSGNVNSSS
- method-description: S1P1 binding assay: inhibition of [33P]-S1P binding to membrane fraction of HEK-293 cells transferred with the human Edg-1 (S1P1) gene
- condition-info: test compound 10 μM; inhibition of [33P]-S1P binding, membrane fraction
Reported inhibition at 10 µM values for the following molecules.
readout-name: inhibition at 10 µM (%)

* CCn1c(Oc2cccc(N3CCN(C)CC3)c2)nnc1[C@@H](C)NS(=O)(=O)c1c(Cl)cc(Br)cc1Cl [Compound 617] | 77.5
* CCn1c(Oc2cccc(N3CCN(C)CC3)c2)nnc1[C@@H](C)NS(=O)(=O)c1cccc2ccccc12 [Compound 522] | 98.4
* CCn1c(Oc2cccc(N3CCN(C)CC3)c2)nnc1[C@@H](C)NS(=O)(=O)c1ccc(OC)cc1OC [Compound 642] | 85.5
* CCn1c(Oc2ccc3cc[nH]c3c2)nnc1[C@@H](C)NS(=O)(=O)c1ccc(C(F)(F)F)cc1Cl [Compound 475] | 51.8
* CCn1c(Oc2ccc3cc[nH]c3c2)nnc1[C@@H](C)NS(=O)(=O)c1c(C)cc(Cl)cc1Cl [Compound 426] | 92.3
* CCn1c(Oc2cccc(N3CCN(C)CC3)c2)nnc1[C@@H](C)NS(=O)(=O)c1ccc2oc(=O)ccc2c1 [Compound 679] | 104
* CCn1c(Oc2ccc3cc[nH]c3c2)nnc1[C@@H](C)NS(=O)(=O)c1ccc(C(F)(F)F)cc1Br [Compound 442] | 70.1
* CCn1c(Oc2ccc3cc[nH]c3c2)nnc1[C@@H](C)NS(=O)(=O)c1cc(C)cc(C)c1 [Compound 433] | 93.8
* CCn1c(Oc2cccc(N3CCN(C)CC3)c2)nnc1[C@@H](C)NS(=O)(=O)c1ccsc1 [Compound 635] | 68.7
* CCn1c(Oc2ccc3cc[nH]c3c2)nnc1[C@@H](C)NS(=O)(=O)c1cc(Cl)ccc1OC [Compound 425] | 90.1
* CCn1c(Oc2ccc3cc[nH]c3c2)nnc1[C@@H](C)NS(=O)(=O)c1ccc(Cl)cc1Cl [Compound 398] | 84.7
* CCn1c(Oc2cccc(N3CCN(C)CC3)c2)nnc1[C@@H](C)NS(=O)(=O)c1cc(C(F)(F)F)ccc1Cl [Compound 591] | 77.5
* CCn1c(Oc2ccc(F)cc2)nnc1C(C)(C)NS(=O)(=O)c1ccc(Cl)c(Cl)c1 [Compound 682] | 76.6
* CCn1c(Oc2ccc3cc[nH]c3c2)nnc1[C@@H](C)NS(=O)(=O)c1ccc(F)cc1C [Compound 445] | 55.6
* CCn1c(Oc2cccc(N3CCN(C)CC3)c2)nnc1[C@@H](C)NS(=O)(=O)c1cc(Cl)ccc1OC [Compound 594] | 84
